OBSERVATION TYPE: melting point

Data request, read-out melting point, for "O=c1cc(-c2ccc(OCC(F)(F)F)c(F)c2)nc2ccc(N3CCNCC3)cn12" 198 to 201 °C

====

Each entry below lists one item and its recorded melting point value.

{"COMPOUND": "CCc1cc(-c2cc(=O)n3cc(N4CCN(CCO)[C@H](C)C4)ccc3n2)cn2cc(C)nc12 [Compound 649]", "melting point": "217 to 220 °C"}
{"COMPOUND": "Cc1cn2nc(-c3cc(=O)n4cc(N5CCC(N6CCN(C)CC6)CC5)ccc4n3)cc2c(C)n1 [Compound 427]", "melting point": "198 to 200 °C"}
{"COMPOUND": "COc1ccc(-c2cc(=O)n3cc(C4CCN(C)CC4)ccc3n2)cc1OC [Cpd 164]", "melting point": "181 to 183 °C"}
{"COMPOUND": "Cc1nc2ccc(-c3cc(=O)n4cc(C5=CCN(C(C)C)CC5)ccc4n3)cc2s1 [Compound 394]", "melting point": "168 to 170 °C"}
{"COMPOUND": "CCN1CCC(c2ccc3nc(-c4cc(Cl)c5nc(C)cn5c4)cc(=O)n3n2)CC1 [Compound 525]", "melting point": "284 to 286 °C"}
{"COMPOUND": "CCc1cc(-c2cc(=O)n3cc(C4CCNCC4)ccc3n2)cn2cc(C)nc12 [Compound 696]", "melting point": "221 to 224 °C"}

Data request, read-out melting point, for COc1cnc(-c2cc(=O)n3cc(N4CCNCC4)ccc3n2)cc1OC [Compound 199] 207 to 209 °C

Try the compound Cc1cn2cc(-c3cc(=O)n4cc(N5CCN(C(C)C)[C@H](C)C5)ccc4n3)cc(Cl)c2n1 [Compound 497] 278 to 281 °C

Try the compound CCc1nc(C)cn2nc(-c3cc(=O)n4cc(N5C[C@H]6CNC[C@H]6C5)ccc4n3)cc12 [Compound 747] 246 to 249 °C

Try the compound Cc1nc2ccc(-c3cc(=O)n4nc(C5CCNCC5)ccc4n3)cc2o1 [Compound 499] 126 to 128 °C

Try the compound Cc1cn2cc(-c3cc(=O)n4cc(N5CCNCC5)ccc4n3)cc(Cl)c2n1 [Compound 287] 245 to 251 °C
